assay.explanation: Viability qHTS for spleen associated tyrosine kinase inhibitor (SYKi) naive MV4-11 cells (AID 1963823); note: nearly all actives have a fitted effect of over 40% in size
study.conditions: MV4-11 AML viability, CellTiter-Glo luminescence, 72 h; series mostly up to 45 µM
Results filed as inconclusive are left out. Activity calls are given as the source filed them. Calls come from the whole dose curve; as a rule, active = well fitted cell-killing curve with a large enough effect; inconclusive = small, poorly fitted or top-dose-only effect, or effect the other way; inactive = no such curve, though single readings can be large or run the other way.
The reply should be one of these categories: active, inactive

Solved cases below.
{"columns": ["compound", "label.class"],
 "data": [
  ["O=c1oc2c(O)c(O)cc3c(=O)oc4c(O)c(O)cc1c4c23", "inactive"],
  ["C[C@@H]1O[C@@H](O[C@H]2[C@H](O)[C@@H](O)[C@H](OC3CCC4(C)C5CCC(C)(C(CO)OC6OC(CO)C(O)C(O)C6O)CC5=CCC4C3(C)C)O[C@@H]2CO)[C@H](O)[C@H](O)[C@H]1O (stereo not given in full)", "inactive"],
  ["CC(=O)C1(C)CCC2C3C=C(C)C4=CC(=O)CCC4(C)C3CCC21C (stereo not given)", "active"],
  ["CC1(C)Oc2ccc(C#N)cc2[C@@H](N2CCCC2=O)[C@@H]1O", "inactive"]
]}

Prompt: Returns: the outcome recorded for C=C1C(=O)O[C@@H]2/C=C(\C)CC/C=C(\C)CC[C@@H]12 in this assay.
Completion: active

Prompt: Identify the outcome logged in this assay for the compound shown: COc1cc(C(=O)O)ccc1NC(=O)[C@@H]1N[C@@H](CC(C)(C)C)[C@](C#N)(c2ccc(Cl)cc2F)[C@H]1c1cccc(Cl)c1F
Completion: active

Prompt: Returns: the outcome recorded for CC(C(=O)O)c1ccc(CC2CCCC2=O)cc1 (stereo not given) in this assay.
Completion: inactive

Prompt: Test call for this compound, please: CNCCn1c(=O)c2cc(OC)c(OC)cc2c2cnc3cc4c(cc3c21)OCO4
Completion: active

Prompt: How did this test come out for O=c1[nH]c(=O)n([C@H]2CCCO2)cc1F ?
Completion: active

Prompt: // return assay outcome for CNC[C@H](O)c1ccc(O)c(O)c1
Completion: inactive

Prompt: // return assay outcome for CC1(C)CC[C@]2(C(=O)O[C@@H]3O[C@H](CO)[C@@H](O)[C@H](O)[C@H]3O)[C@H](O)C[C@]3(C)C(=CCC4[C@@]5(C)CC[C@H](O[C@@H]6OC[C@@H](O)[C@H](O)[C@H]6O)[C@@](C)(C(=O)O)C5CC[C@]43C)[C@@H]2C1 (stereo not given in full)
Completion: inactive

Prompt: Recorded test call requested for Cc1cn[nH]c1
Completion: inactive

Prompt: Which outcome did this test record for the compound N#CC(CCCN1CCN(/N=C/c2cccnc2)CC1)(c1ccccc1)c1ccccc1 ?
Completion: active

Prompt: Would you mind telling me which call this test gave CC(C/C=C/C(C)(C)O)C1CCC(C)(O)C(O)C1 (stereo not given) ?
Completion: inactive

Prompt: Can you look up the reported call for CCOc1ccc(NC(=O)CC(C)O)cc1 (stereo not given) for me?
Completion: inactive

Prompt: Per the records of this test, what outcome belongs to C#CC(C)(CC)OC(=O)c1ccccc1C(=O)O (stereo not given) ?
Completion: inactive

Prompt: // outcome(item) with item = C/C(=C\CCC(C)C1=CCC2(C)OC3=C(CC12)C(=O)C(O)CC3)CO (stereo not given)
Completion: inactive

Prompt: How did this test come out for NS(=O)(=O)c1ccc(C(=O)O)cc1 ?
Completion: inactive

Prompt: Per the records of this test, what outcome belongs to CC(C)CCCC(C)CCCC(C)CCCCC(C)CCCC(C)CCCC(C)C (stereo not given) ?
Completion: inactive

Prompt: I would be grateful if you could indicate the recorded call for O=C(CO)[C@@H](O)[C@H](O[C@@H]1O[C@H](CO)[C@H](O)[C@H](O)[C@H]1O)[C@H](O)CO .
Completion: inactive
